The measured values listed here are drawn from patent US20230303690A1.

Parameter: OD450 at 1.6461 nM. Scope: all listed entries.
# target-under-test: T1, LAG3 Protein, Human, Recombinant (His Tag) (Sino Biological Catalog No. 16498-H08H) (human, UniProt P18627 23-450)
# T1 construct: Bought protein; also called hLAG3-His; LAG3-His; not shown: His tag
# T1 sequence (looked up): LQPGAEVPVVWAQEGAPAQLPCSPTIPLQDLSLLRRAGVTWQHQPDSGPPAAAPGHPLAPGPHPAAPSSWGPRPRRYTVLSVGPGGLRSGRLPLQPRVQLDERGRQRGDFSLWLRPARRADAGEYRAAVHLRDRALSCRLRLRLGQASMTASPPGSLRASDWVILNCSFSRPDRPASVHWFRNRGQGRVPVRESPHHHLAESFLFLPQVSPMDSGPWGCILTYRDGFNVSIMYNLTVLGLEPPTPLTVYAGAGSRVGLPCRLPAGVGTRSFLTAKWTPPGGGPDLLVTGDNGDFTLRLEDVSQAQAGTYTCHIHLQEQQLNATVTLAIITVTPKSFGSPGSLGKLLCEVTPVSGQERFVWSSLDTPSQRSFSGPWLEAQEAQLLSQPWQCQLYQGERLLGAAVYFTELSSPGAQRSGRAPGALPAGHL
# protocol: ELISA, coated hLAG3-His
value-kind: OD450 at 1.6461 nM

| binder | recorded-value |
| --- | --- |
| sdAb No. 25-B5 (VHH, Humanized sdAb No. 25; not shown: Fc part implied by anti-human IgG1 Fc detection) VHH: QVQLVESGGGLVKPGGSLRLSCAASGSIESFSFMGWYRQAPGKQREWVAGFTGAASLSFSTYTDAVKGRFTISRDNAKNSLYLQMNSLRAEDTAVYYCNVDPWSQSWPGRYWGQGTTVTVSS | 0.048 |
| sdAb No. 27 (VHH, Fc of the tested form not described; also called sdAb 27; not shown: Fc part implied by anti-human Fc capture and anti-human IgG Fc detection) VHH: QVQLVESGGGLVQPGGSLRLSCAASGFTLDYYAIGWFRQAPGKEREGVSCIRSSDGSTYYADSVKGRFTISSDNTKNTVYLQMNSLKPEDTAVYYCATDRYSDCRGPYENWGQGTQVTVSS | 0.257 |
| sdAb No. 25 (VHH, Fc of the tested form not described; also called sdAb 25; sdAb #25; not shown: Fc part implied by anti-human Fc capture and anti-human IgG Fc detection) VHH: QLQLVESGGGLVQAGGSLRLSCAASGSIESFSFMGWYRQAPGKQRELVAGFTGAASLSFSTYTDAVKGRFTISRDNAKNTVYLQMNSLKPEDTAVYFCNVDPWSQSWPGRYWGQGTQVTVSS | 0.233 |
| sdAb No. 25-B6 (VHH, Humanized sdAb No. 25; not shown: Fc part implied by anti-human IgG1 Fc detection) VHH: QLQLVESGGGLVKPGGSLRLSCAASGSIESFSFMGWYRQAPGKQREWVAGFTGAASLSFSTYTDAVKGRFTISRDNAKNSVYLQMNSLRAEDTAVYYCNVDPWSQSWPGRYWGQGTTVTVSS | 0.044 |
| sdAb No. 27-H1B3 (VHH, Humanized sdAb No. 27-H1; not shown: Fc part implied by anti-human IgG Fc detection) VHH: QVQLVESGGGLVQPGGSLRLSCAASGFTLDYYAIGWFRQAPGKEREGVSCIRSSDASTYYADSVKGRFTISSDNSKNTVYLQMNSLRAEDTAVYYCATDRYSDCRGPYENWGQGTMVTVSS | 1.15 |
| sdAb No. 25-B7 (VHH, Humanized sdAb No. 25; not shown: Fc part implied by anti-human IgG Fc detection) VHH: QLQLVESGGGLVKPGGSLRLSCAASGSIESFSFMGWYRQAPGKQRELVAGFTGAASLSFSTYTDAVKGRFTISRDNAKNSVYLQMNSLRAEDTAVYFCNVDPWSQSWPGRYWGQGTTVTVSS | 0.648 |
